biological target: T1, cyBCMA (cynomolgus, UniProt A0A2K5UD97 1-53); assay: SPR, immobilised IgG, 37° C
T1 construct: Soluble analyte in SPR; construct not described; also called cyno BCMA
T1 sequence (A0A2K5UD97 entry or part of it): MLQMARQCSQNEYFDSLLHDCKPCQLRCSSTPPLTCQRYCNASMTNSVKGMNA
The entries below come with measured T½ values attached.
Provide the measurement as a number trailed by its unit.

Ask: T½ for L3.PY/L1.PS/H3.TAQ (antibody, V domains shown, IgG in the assay) VH: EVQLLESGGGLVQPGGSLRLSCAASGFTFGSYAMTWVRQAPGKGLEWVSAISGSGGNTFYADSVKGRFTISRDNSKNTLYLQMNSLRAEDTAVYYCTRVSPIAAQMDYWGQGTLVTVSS VL: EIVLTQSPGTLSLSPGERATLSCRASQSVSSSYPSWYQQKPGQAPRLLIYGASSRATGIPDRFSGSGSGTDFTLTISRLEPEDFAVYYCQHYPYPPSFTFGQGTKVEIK ?
Reply: 2.09 min
